Assign Hipp-Arg (% conversion) to each entry below.
procedure-text: Conversion of Hipp-Arg by purified HCPB mutants, 30 minutes, HPLC (Example 17)
Assay type: biochemical
recorded-conditions: enzyme 25 μg/ml; 0.5 mM substrate; 30 minutes at 37° C.
Answers are plain numbers, in %.

[I201S, D253K]: HCPB mutant with I201S and D253K (protein, UniProt P15086 111-417, looked up, variant I201S D253K) Carboxypeptidase B: ATGHSYEKYNKWETIEAWTQQVATENPALISRSVIGTTFEGRAIYLLKVGKAGQNKPAIFMDCGFHAREWISPAFCQWFVREAVRTYGREIQVTELLDKLDFYVLPVLNIDGYIYTWTKSRFWRKTRSTHTGSSCIGTDPNRNFDAGWCEIGASRNPCDETYCGPAAESEKETKALADFIRNKLSSIKAYLTIHSYSQMMSYPYSYAYKLGENNAELNALAKATVKELASLHGTKYTYGPGATTIYPAAGGSKDWAYDQGIRYSFTFELRDTGRYGFLLPESQIRATCEETFLAIKYVASYVLEHLY = 0

From here, focus on the item given below.
Ask: Please look up its Hipp-Arg (% conversion): [G251N,D253R]: HCPB mutant with G251N and D253R, (His)6-c-myc tag (protein, UniProt P15086 111-417, looked up, variant G251N D253R, (His)6-c-myc tag) Carboxypeptidase B: ATGHSYEKYNKWETIEAWTQQVATENPALISRSVIGTTFEGRAIYLLKVGKAGQNKPAIFMDCGFHAREWISPAFCQWFVREAVRTYGREIQVTELLDKLDFYVLPVLNIDGYIYTWTKSRFWRKTRSTHTGSSCIGTDPNRNFDAGWCEIGASRNPCDETYCGPAAESEKETKALADFIRNKLSSIKAYLTIHSYSQMMIYPYSYAYKLGENNAELNALAKATVKELASLHGTKYTYGPGATTIYPAAGNSRDWAYDQGIRYSFTFELRDTGRYGFLLPESQIRATCEETFLAIKYVASYVLEHLY
Reply: 0
